tested on: Trypanosoma cruzi; assay: Trypanosoma cruzi phosphomannomutase and mannose-1-phosphate guanylyltransferase assay; type: functional; set-up: scale not given: direction of the effect not stated beside the values; settings: 10 µM
Readout Label: Percent Effect
Quote the value and follow it with the unit of measurement.

Some compounds with known Percent Effect results, for comparison:
>  <Compound>
Cc1cnc(N2CCCC3(CCN(Cc4csc(C)n4)C3=O)C2)nc1 (stereo unspecified)

>  <Readout Label>
Percent Effect

>  <Result>
0.965%

$$$$
>  <Compound>
O=C(CN1CCc2ccccc21)Nc1ccc(OC(F)F)cc1

>  <Readout Label>
Percent Effect

>  <Result>
-2.23%

$$$$
>  <Compound>
COc1ccc(C(=O)N(C)Cc2nnc3ccccn23)c(OC)c1

>  <Readout Label>
Percent Effect

>  <Result>
2.06%

$$$$
>  <Compound>
Cc1nccn1C1CCCN(C(=O)C2=NN(C)C(=O)CC2)C1 (stereo unspecified)

>  <Readout Label>
Percent Effect

>  <Result>
-3.68%

$$$$
>  <Compound>
Cc1cccnc1NC(=O)CC1(Cn2cnnn2)CCCCC1

>  <Readout Label>
Percent Effect

>  <Result>
1.66%

$$$$

Turning now to a further compound:
Specify measured Percent Effect for "O=C(COc1coc(CN2CCCC2)cc1=O)NCc1ccccc1Cl" .
0.393%

* * *

Percent Effect overview
target: Arginase-2, mitochondrial (Homo sapiens); assay: in vitro enzyme assay to detect the production of urea directly proportional to the activity of Arginase II; type: functional; design: scale not given: in the data most compounds retested in dose-response had high values; conditions: 33.3 µM
# value in %; strip the unit string

Tell us which Percent Effect value is on record for Cc1n[nH]cc1C(=O)N1CCCC(n2nnc3cc(F)ccc32)C1 (configuration not stated)
-3.5

Answer with the recorded Percent Effect for the compound listed here: Cc1cnc(CN(C)C2CCN(CC(=O)N(C)c3nccs3)C2)o1 (configuration not stated)
0.76

Please give the documented Percent Effect of "CSCc1cccc(S(=O)(=O)NCCCN2CCOCC2)c1"
-6.9

Identify the reported Percent Effect for the following entry. COC(C(=O)N1CCCN(Cc2cscn2)CC1)c1ccccc1 (configuration not stated)
-5.36

Annotate the compound "O=c1c2cnc(N3CCCCC3)nc2ccn1-c1ccccc1" with its measured Percent Effect.
-7.22

Let me know recorded Percent Effect for "CCN1C[C@H]2CCN(C(=O)NC3CCCC3)CC[C@H]2S1(=O)=O" , thanks.
-5.81

In one line, give reported Percent Effect of the entry "CN(C)CCn1c(=O)oc2ccc(NC(=O)c3cc(Cl)c[nH]3)cc21" .
4.17

Given "CN(Cc1nnc2n1CCC2)C(=O)Cc1ccc2c(c1)OCCO2" , respond with its Percent Effect.
-5.21

Quickly give me recorded Percent Effect for CS(=O)(=O)NCCC(=O)NC1CCc2nccn2C1 (configuration not stated)
2.08

Name the recorded Percent Effect of the item COc1ccc(OC)c(NC(=O)N2CCCC2c2ccco2)c1 (configuration not stated) in your answer.
1.94

Answer with reported Percent Effect of "Cc1cccc(-c2nc(CN3CCc4c(ncn4C)C3)no2)c1"
0.356

Complete the entry with Percent Effect for Cc1nn(C)c(C)c1CNC1CCOc2ccccc21 (configuration not stated)
-1.74

* * *

target: Tyrosyl-tRNA synthetase, putative (Trypanosoma cruzi (strain CL Brener)) (UniProt Q4DSP6); experiment: Trypanosoma cruzi tyrosyl tRNA synthetase (TcYRS) SOP; type: functional; design: scale not given: direction of the effect not stated beside the values; settings: 30 µM
Sequence (Q4DSP6 as listed by the source): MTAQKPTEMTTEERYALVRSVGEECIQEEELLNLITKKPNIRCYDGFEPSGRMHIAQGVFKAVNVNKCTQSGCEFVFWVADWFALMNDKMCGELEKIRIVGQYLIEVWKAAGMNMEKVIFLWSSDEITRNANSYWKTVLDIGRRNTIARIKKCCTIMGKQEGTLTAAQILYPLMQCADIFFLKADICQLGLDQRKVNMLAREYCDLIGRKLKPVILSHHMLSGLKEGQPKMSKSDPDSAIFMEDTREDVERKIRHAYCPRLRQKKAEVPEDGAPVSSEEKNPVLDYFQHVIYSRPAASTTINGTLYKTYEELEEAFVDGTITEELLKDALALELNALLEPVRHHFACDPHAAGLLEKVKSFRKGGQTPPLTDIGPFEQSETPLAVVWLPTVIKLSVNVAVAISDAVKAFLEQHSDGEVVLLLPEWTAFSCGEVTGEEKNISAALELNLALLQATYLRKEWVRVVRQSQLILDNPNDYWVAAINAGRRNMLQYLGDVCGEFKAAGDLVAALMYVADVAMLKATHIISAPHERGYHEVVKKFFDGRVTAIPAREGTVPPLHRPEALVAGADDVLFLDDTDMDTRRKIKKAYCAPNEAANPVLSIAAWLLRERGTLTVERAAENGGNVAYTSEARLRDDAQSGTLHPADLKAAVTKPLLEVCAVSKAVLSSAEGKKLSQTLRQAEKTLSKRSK
Classify by measured Percent Effect: y if it is equal to or exceeds 10%, n if it is smaller.

// below: answered compounds
>  <Compound>
COc1ccc2cc(C(=O)N3CCCCC3Cn3cccn3)[nH]c2c1 (centres undefined)

>  <Assigned Label>
n

$$$$
>  <Compound>
CCC(=O)N1CCCC1c1nccnc1Nc1ncccn1 (centres undefined)

>  <Assigned Label>
n

$$$$
>  <Compound>
CS(=O)(=O)N1CC[C@]2(C[C@@H](OCC3CCC3)CO2)C1

>  <Assigned Label>
y

$$$$

Hello, I need to know if "COc1ccc(OCc2nc(C(=O)N3CC(O)C3)co2)cc1" has measured Percent Effect not below 10%. Thanks!
n

API: above_or_equal(metric=Percent Effect, cutoff=10%) for item "FC(F)(F)c1cccc(C2(CNCc3ccncc3)CCOCC2)c1"
y

Determine whether this compound has Percent Effect no lower than 10%: c1ccc(CCN2CCOC(Cn3cccn3)C2)nc1 (centres undefined)
y

* * *

molecular target: Tyrosyl-tRNA synthetase, putative (Trypanosoma cruzi (strain CL Brener)); experiment: Trypanosoma cruzi tyrosyl tRNA synthetase (TcYRS) SOP; format: functional; set-up: scale not given: direction of the effect not stated beside the values; details: 30 µM
Outcome: MET for Percent Effect of at least 10%; NOT MET for anything lower.

Worked cases, answers included:
>  <Molecule>
CC(O)CN1CCN(C(=O)c2cc3ccccc3[nH]c2=O)CC1 (centres undefined)

>  <Assigned Label>
NOT MET

$$$$
>  <Molecule>
Cc1nnc2n1CCN(Cc1csc(Cc3ccccc3)n1)C2

>  <Assigned Label>
MET

$$$$
>  <Molecule>
COc1nc2c(cc1C(=O)N1C[C@H](N)C[C@H]1C(=O)NC(C)C)CCC2

>  <Assigned Label>
MET

$$$$

Reported Percent Effect reaches at least 10% for "CCOc1ccc(Cl)cc1CNCCCn1ccnc1" ?
NOT MET

* * *

biological target: Tyrosyl-tRNA synthetase, putative (Trypanosoma cruzi (strain CL Brener)); assay: Trypanosoma cruzi tyrosyl tRNA synthetase (TcYRS) SOP; assay type: functional; set-up: scale not given: direction of the effect not stated beside the values; details: 30 µM
Please enter yes where Percent Effect is greater than or equal to 20%, and no where it is lower.

Please review the following examples before continuing.
>  <Compound>
Cc1nc(CN(C)C2CCN(Cc3nc4ccccc4s3)C2)no1 (centres undefined)

>  <Test Target>
Tyrosyl-tRNA synthetase, putative (Trypanosoma cruzi (strain CL Brener))

>  <Assigned Label>
yes

$$$$
>  <Compound>
CC(C)C(C(=O)N1CCCN(Cc2nccn2C)CC1)N1CCCC1 (centres undefined)

>  <Test Target>
Tyrosyl-tRNA synthetase, putative (Trypanosoma cruzi (strain CL Brener))

>  <Assigned Label>
no

$$$$
>  <Compound>
COCC1c2c(cnn2CC2CCOCC2)CCN1Cc1ccoc1 (centres undefined)

>  <Test Target>
Tyrosyl-tRNA synthetase, putative (Trypanosoma cruzi (strain CL Brener))

>  <Assigned Label>
no

$$$$
>  <Compound>
COc1cccc(CN2CCCC(Nc3cccc(F)c3)C2)c1O (centres undefined)

>  <Test Target>
Tyrosyl-tRNA synthetase, putative (Trypanosoma cruzi (strain CL Brener))

>  <Assigned Label>
no

$$$$
>  <Compound>
CN1CCN(C2CCN(CCOc3ccc(F)cc3)CC2)C1=O

>  <Test Target>
Tyrosyl-tRNA synthetase, putative (Trypanosoma cruzi (strain CL Brener))

>  <Assigned Label>
no

$$$$
>  <Compound>
Cc1ccc(C(=O)N2CCCC2c2nnc3n2CCCCC3)o1 (centres undefined)

>  <Test Target>
Tyrosyl-tRNA synthetase, putative (Trypanosoma cruzi (strain CL Brener))

>  <Assigned Label>
no

$$$$
>  <Compound>
COc1ccc2c(c1)CN(Cc1nc3c(cnn3C)c(=O)[nH]1)CC2

>  <Test Target>
Tyrosyl-tRNA synthetase, putative (Trypanosoma cruzi (strain CL Brener))

>  <Assigned Label>
yes

$$$$
>  <Compound>
CN(Cc1ccsc1)C(=O)c1cccc(S(=O)(=O)NC(C)(C)C)c1

>  <Test Target>
Tyrosyl-tRNA synthetase, putative (Trypanosoma cruzi (strain CL Brener))

>  <Assigned Label>
no

$$$$
>  <Compound>
O=C(NCc1ccccn1)[C@@H]1CCO[C@@H]2CCN(Cc3ccoc3)C[C@H]21

>  <Test Target>
Tyrosyl-tRNA synthetase, putative (Trypanosoma cruzi (strain CL Brener))

>  <Assigned Label>
no

$$$$
>  <Compound>
COCc1ncn2c1CN(C(=O)C1CC=CC1)CC2

>  <Test Target>
Tyrosyl-tRNA synthetase, putative (Trypanosoma cruzi (strain CL Brener))

>  <Assigned Label>
no

$$$$

Entry COc1ccc(C2CCCCCN2S(=O)(=O)N(C)C)cc1 (centres undefined) : is its Percent Effect no less than 20%?
no

Does O=C(CCOCc1ccccc1)N1CCCC1c1noc(C2CC2)n1 (centres undefined) have a reported Percent Effect of at least 20%?
yes

Determine whether this compound has Percent Effect no lower than 20%: "COc1ccc(CC(=O)N(C)Cc2nnc3ccccn23)cc1"
yes

Threshold query (Percent Effect >= 20%) on "Cc1nc(C(=O)N2CCC(Nc3cccnn3)CC2)cs1"
no

Could you tell me if the measured Percent Effect of O=C(NCCCn1cncn1)NCC(c1ccco1)N1CCCCC1 (centres undefined) reaches 20% or more?
no

Given the entry Cc1nc(C2CCCN(C(=O)CCCn3cccn3)C2)no1 (centres undefined) , answer whether its Percent Effect meets or surpasses 20%.
yes

Does the compound Cc1n[nH]c(C2CN(C(=O)CCc3ccco3)CCO2)n1 (centres undefined) have recorded Percent Effect that is 20% or more?
no

Is it the case that O=C(NCCc1ccccc1)C1CCC(Cn2cnnn2)CC1 (centres undefined) has Percent Effect reaching or exceeding 20%?
no

API: above_or_equal(metric=Percent Effect, cutoff=20%) for item O=C(CS(=O)(=O)CC1CCCCC1)NC1CCCCNC1=O (centres undefined)
no

Determine whether this compound has Percent Effect no lower than 20%: CCN(CC)C(=O)CCNC(=O)N1CCC(c2ccccc2)C1 (centres undefined)
no

Reference source for all entries: ChEMBL document CHEMBL3988442
